# ASSAY NOTES: antivirals protecting cells from dengue CPE – CPE readout, HTS (AID 540333)
# TEST CONTEXT: Dengue virus CPE inhibition in host cells, at 20 µM
Among all 10,000 compounds or so, about 320 (3.2%) were called active. Cut-off read from the data, not from the text of the source: active = CPE inhibition mostly above about 9.1% (no sharp cut-off); inactive = mostly below about 7.2%. Only a selection was taken, and actives are over-represented in it overall.
Thanks in advance; please answer with one of these: 1 (active), 0 (inactive)

Known results for compounds:
| COMPOUND | LABEL CLASS |
| --- | --- |
| CCN(CC)S(=O)(=O)c1cccc(NC(=O)CCSc2ccc(Cl)cc2)c1 | 1 |
| CC1CCc2c(C(=O)OCC(=O)Nc3cccc(S(=O)(=O)N4CCCCCC4)c3)csc2C1 (configuration not stated) | 1 |
| Cc1ccc(-c2csc(NC(=S)NC(=O)c3cc4ccccc4o3)n2)cc1 | 0 |

*Q* For COc1ccc(COc2ccccc2C(=O)NCc2ccccc2)cc1F , what call appears in the results of this test?
*A* 0

*Q* Now the same for COc1ccc(C(=O)NCC(=O)NCC(c2ccco2)N(C)C)cc1OC (configuration not stated)
*A* 0

*Q* Can you handle O=C(COC(=O)/C=C/c1ccccc1Cl)NC(=O)Cc1ccccc1 next?
*A* 0

*Q* And the next one, Nc1nccnc1C(=O)OCC(=O)Nc1cccc(S(=O)(=O)N2CCCCC2)c1 ?
*A* 0

---

# ASSAY NOTES: antivirals protecting cells from dengue CPE – CPE readout, HTS (AID 540333)
# TEST CONTEXT: Dengue virus CPE inhibition in host cells, at 20 µM; stronger effect = higher value
Among all 10,000 compounds or so, about 320 (3.2%) were called active. The sample holds actives, similar compounds and a random draw of the others, so the mix is not that of the screen.
RECORDED ENDPOINT: CPE inhibition

| COMPOUND | CPE inhibition |
| --- | --- |
| Cc1ccc(SCCNC(=O)/C=C/c2cccc([N+](=O)[O-])c2)cc1 | 6.54% (inactive) |
| CCCCCCNC(=O)CC(NS(=O)(=O)c1ccc(OC)cc1)C(C)C (centres undefined) | 0.025% (inactive) |
| Cn1c(SCC(=O)N2c3ccccc3CCc3ccccc32)nnc1-c1ccc(O)cc1 | inactive |
| Cc1cc(C)cc(NC(=O)C(OC(=O)c2ccc([N+](=O)[O-])o2)c2ccccc2)c1 (centres undefined) | 0.445% (inactive) |
| S=C(N/N=C/c1ccc(Cl)cc1)N1CCOCC1 | inactive |

Batch: CPE inhibition for all items listed.
1. Cc1ccc(NC(=O)CSc2ccccc2NC(=O)c2ccccc2Cl)cc1Cl
2. COc1ccc(CCNC(=O)CC2SC(=NCCc3ccccc3)NC2=O)cc1 (centres undefined)
3. COc1ccc(-c2csc3ncnc(Oc4ccc5c(C)cc(=O)oc5c4)c23)cc1
4. S=C(NCCc1ccccc1)Nc1ccc(Br)cc1
5. CCOc1ccc(N=C2NC(=O)/C(=C/C(=O)OC)S2)cc1
6. COC(=O)c1cnn(-c2nc(OC)cc(OC)n2)c1C

*A*
1. 9.34% (inactive)
2. inactive
3. inactive
4. 3.17% (inactive)
5. 0.935% (inactive)
6. 0.205% (inactive)

---

# ASSAY NOTES: antivirals protecting cells from dengue CPE – CPE readout, HTS (AID 540333)
# TEST CONTEXT: Dengue virus CPE inhibition in host cells, at 20 µM
About 320 (3.2%) of roughly 10,000 compounds were called active. Cut-off read from the data, not from the text of the source: active = CPE inhibition mostly above about 9.1% (no sharp cut-off); inactive = mostly below about 7.2%. The list comes from a sample in which actives are over-represented; it also holds close analogues and randomly drawn compounds.
Output constraint: value belongs to active, inactive

Reference set, count: 3
| MOLECULE | LABEL CLASS |
| --- | --- |
| CN(c1cccc(NC(=O)CN(c2ccc(Cl)c(Cl)c2)S(=O)(=O)c2ccccc2)c1)S(C)(=O)=O | inactive |
| Cc1cccc(NC(=O)CN2C(=O)N/C(=C/c3cc(C)n(-c4ccncc4)c3C)C2=O)c1 | inactive |
| O=C(OC(C(=O)Nc1cc(Cl)cc(Cl)c1)c1ccccc1)C1=COCCO1 (stereo not given) | active |

*Q* Dear all, I need the recorded test outcome for COc1ccc(-n2c(SCc3ccc([N+](=O)[O-])cc3)nnc2-c2ccc(C)cc2)cc1 , thank you.
*A* inactive

*Q* What do we get for COc1ccc(-n2c(CNc3ccc(C)cc3)nnc2SCc2ccccc2)cc1 ?
*A* active

*Q* // same read-out, input: CCCCc1nn2c(N)c(/C=C3\C=Nc4ccccc43)c(=O)nc2s1
*A* inactive

*Q* Continue with Cc1ccc(C(=O)OC(C(=O)Nc2ccc(Cl)cc2C(F)(F)F)c2ccccc2)cc1 (stereo not given)
*A* inactive
